- System: OVCAR-8 ovarian
- Assay method text: NCI tumour cell line growth inhibition, 48 h; in the data active = GI50 below about 0.43 µM; inactive = the rest
Parameter call: string, one of active, inactive

Could you please tell me the result logged for "COc1ccccc1-c1cc2c3c(nc4ccccc42)C(=O)c2cccnc2-c3n1" in this assay?
inactive

Could you please tell me the result logged for OCC(O)CC[CH2][Sn]([c]1ccccc1)([c]1ccccc1)[c]1ccccc1 (configuration not stated) in this assay?
inactive

Could you please tell me the result logged for COc1ccc(C(CC(=O)c2ccccc2)C(C(=O)c2ccccc2)C(c2ccc(OC)cc2)C2C(=O)NC(=O)NC2=O)cc1 (configuration not stated) in this assay?
inactive

Could you please tell me the result logged for C[C@@H]1O[C@@H](O[C@H]2C[C@@H](O)[C@]3(CO)C4C(CC[C@]3(O)C2)[C@@]2(O)CC[C@H](C3=CC(=O)OC3)[C@@]2(C)C[C@H]4O)[C@H](O)[C@H](O)[C@H]1O (some centres not stated) in this assay?
active

Could you please tell me the result logged for COC1/C=C/O[C@@]2(C)Oc3c(C)c(O)c4c(O)c(cc(O)c4c3C2=O)NC(=O)/C(C)=C\C=C\[C@H](C)C(O)[C@@H](C)[C@@H](O)[C@@H](C)[C@H](OC(C)=O)[C@@H]1C (some centres not stated) in this assay?
inactive

Could you please tell me the result logged for "O=C(NCc1cn(Cc2cccc(Oc3ccccc3)c2)nn1)c1cccnc1Nc1ccccc1" in this assay?
inactive

Could you please tell me the result logged for "C[C@]12CC[C@H](O)CC1=CC[C@@H]1[C@@H]2CC[C@]2(C)C(=O)/C(=C/c3cccc(OCCCn4ccnc4)c3)C[C@@H]12" in this assay?
inactive

Could you please tell me the result logged for "CO/N=C(\c1ccccc1)c1cnn(-c2ccccc2)c1N" in this assay?
inactive

Could you please tell me the result logged for "COc1ccc2c(c1)C(=O)c1c-2c(NCCCN(C)C)nc2ccccc12" in this assay?
inactive

Could you please tell me the result logged for "COc1ccc2c(c1)O/C(=C\c1cccc(OCC(=O)Nc3nc4ccccc4s3)c1)C2=O" in this assay?
inactive

Could you please tell me the result logged for "O=C1OCC(c2ccc(O)c(O)c2)=C1c1cc(O)c(O)c(O)c1" in this assay?
inactive

Could you please tell me the result logged for C=CC1CC12C(=O)C1OC2(C)C2C(=O)c3ccccc3C(=O)C12 (configuration not stated) in this assay?
inactive

Could you please tell me the result logged for "CN(C(=O)c1ccc(F)cc1C(F)(F)F)C1CCN(c2nnc(-c3ccnn3C)c3ccccc23)CC1" in this assay?
inactive

Could you please tell me the result logged for "Cc1ccc(NS(=O)(=O)c2ccc(-c3cnc(C4CC4)o3)cc2)cc1" in this assay?
inactive

Could you please tell me the result logged for COc1ccc(-c2cc3c4c(nc5ccccc5c4c2)CC(c2cc(OC)c(OC)c(OC)c2)O3)cc1 (configuration not stated) in this assay?
inactive

Could you please tell me the result logged for "O=C(Cn1ccnc1[N+](=O)[O-])N(CCO)CCO" in this assay?
inactive

Could you please tell me the result logged for "FC(F)(F)c1cc(Nc2ccc3c(OCCCN4CCOCC4)cccc3n2)ccc1Cl" in this assay?
inactive

Could you please tell me the result logged for "CCOc1ccc(NC(=O)Nc2cc(C(C)C)ccc2C)cc1" in this assay?
inactive

Could you please tell me the result logged for "CN(C(=O)C1CCCCC1)c1ccccc1I(=O)=O" in this assay?
inactive

Could you please tell me the result logged for "COC[C@H]1C(=O)NCC(=O)N2NCCC[C@H]2C(=O)N(O)[C@H](C)C(=O)O[C@@H](C(C)C)[C@H](NC(=O)[C@](C)(O)[C@]2(O)CC[C@@H](CC(C)C)[C@H](C)O2)C(=O)N2NCCC[C@@H]2C(=O)N1O" in this assay?
active

Could you please tell me the result logged for "Cc1ccc(S(=O)(=O)N(C)C)cc1[N+](=O)[O-]" in this assay?
inactive

Could you please tell me the result logged for "O=C(NNc1nc2cc(F)ccc2n2c(CN3CCOCC3)ccc12)c1ccccc1" in this assay?
active

====

- System: SF-295 CNS
- Assay method text: NCI tumour cell line growth inhibition, 48 h
For each of the compounds below, state its TGI.

Missing value: TGI, SF-295 CNS, entry "CN(C(=O)C1CCCCC1)c1ccccc1I(=O)=O" . Fill in?
> 100 µM

Missing value: TGI, SF-295 CNS, entry "c1cnc2c(c1)-n1cccc1C1(CCOCC1)NN2" . Fill in?
> 100 µM

Missing value: TGI, SF-295 CNS, entry Cc1c(Cl)ccc2c1NC(=O)C2(O)CC(=O)c1ccc(Cl)cc1Cl (stereo unspecified) . Fill in?
> 50 µM

Missing value: TGI, SF-295 CNS, entry "CCCC[C@@H]1NC(=O)[C@H](CCCCN)NC(=O)[C@H](CCCNC(=N)N)NC(=O)[C@H](CC(C)C)NC(=O)[C@@H](NC(=O)[C@H](Cc2cccc(Cl)c2)NC(=O)[C@@H]2CCCN2C(=O)[C@@H](NC(C)=O)C(C)C)CCSSC[C@@H](C(=O)N[C@@H](CCCCN)C(=O)N2CCC[C@H]2C(=O)N2CCC[C@H]2C(=O)N[C@@H](CCC(=O)O)C(N)=O)NC(=O)[C@H](Cc2ccccc2)NC(=O)[C@H](CO)NC(=O)[C@H](C)NC(=O)[C@@H]2CCCN2C1=O" . Fill in?
> 50 µM

Missing value: TGI, SF-295 CNS, entry "COc1ccc(CC(=O)c2cc(OC)c(OC)cc2C)cc1OC" . Fill in?
> 100 µM

Missing value: TGI, SF-295 CNS, entry "O=C1N[C@H]2c3c(Cl)sc(Cl)c3C(=O)[C@H]2O1" . Fill in?
34.6 µM

====

- Test system: MALME-3M melanoma
- Assay method text: NCI tumour cell line growth inhibition, 48 h
Where a SMILES comes first, the peptide text is derived from it. [ ]: non-standard residue; d: D form. The star is where a group is joined. ξ: configuration not given here. X16 = COC1=CC(=O)N(C(=O)C(O*)C(C)C)C1Cc1ccccc1; ξNMe2Val = CC(C)C(C(=O)*)N(C)C; NMeV = CN[CH](C(=O)O)C(C)C
Readout name: TGI

# get_value(readout='TGI', item= "Cc1ccc(S(=O)(=O)N(C)C)cc1[N+](=O)[O-]" )
> 100 µM

# get_value(readout='TGI', item= Cc1ccc(OP2(=O)Oc3ccc4ccccc4c3CN2c2ccc(Cl)cc2)cc1C (stereo unspecified) )
> 100 µM

# get_value(readout='TGI', item= CC(NC(=O)c1ccccc1)C(=O)N(Cc1ccccc1)Cc1ccccc1 (stereo unspecified) )
53.7 µM

# get_value(readout='TGI', item= "O=c1/c(=C/c2cccc3ccccc23)sc2nc3ccccc3n12" )
> 100 µM

# get_value(readout='TGI', item= "COc1ccccc1-c1cc2c3c(nc4ccccc42)C(=O)c2cccnc2-c3n1" )
28.7 µM

# get_value(readout='TGI', item= CCN(CC)c1ccc(NC(C(=O)c2ccccc2)c2ccccc2)cc1 (stereo unspecified) )
7.44 µM

# get_value(readout='TGI', item= "COC[C@H]1C(=O)NCC(=O)N2NCCC[C@H]2C(=O)N(O)[C@H](C)C(=O)O[C@@H](C(C)C)[C@H](NC(=O)[C@](C)(O)[C@]2(O)CC[C@@H](CC(C)C)[C@H](C)O2)C(=O)N2NCCC[C@@H]2C(=O)N1O" )
0.0291 µM

# get_value(readout='TGI', item= CCOC(=O)c1ccc(NC2Oc3cc4c(cc3C(c3cc(OC)c(OC)c(OC)c3)C2C)OCO4)cc1 (stereo unspecified) )
0.677 µM

# get_value(readout='TGI', item= "COc1ccc(NC(=S)NN=C(C)c2cccc(C(C)=NNC(=S)Nc3ccc(OC)cc3)n2)cc1" )
> 100 µM

# get_value(readout='TGI', item= "O=CC1=CCCC2(C1)OCCO2" )
> 100 µM

# get_value(readout='TGI', item= COc1ccc(C2SCC(=O)N2N=C2NC(=O)CC(=O)N2)cc1 (stereo unspecified) )
> 100 µM

# get_value(readout='TGI', item= "Cc1oc2ccccc2c(=O)c1Cn1nnc2ccccc21" )
> 100 µM

# get_value(readout='TGI', item= "COc1ccc(CN2C(=O)CCC/C=C\[C@H]2CI)cc1" )
24.4 µM

# get_value(readout='TGI', item= "FC(F)(F)c1cc(Nc2ccc3c(OCCCN4CCOCC4)cccc3n2)ccc1Cl" )
4.11 µM

# get_value(readout='TGI', item= N=C(N)/N=C(/C=C/c1ccccc1)CC1OC(=O)c2ccccc21 (stereo unspecified) )
> 100 µM

# get_value(readout='TGI', item= "CSc1n[nH]c(N)c1C(=O)Nc1ccc(Cl)cc1" )
> 100 µM

# get_value(readout='TGI', item= "CSc1nc2c(c(N(C)C)n1)C=Nn1c(nc3ccccc31)S2" )
> 100 µM

# get_value(readout='TGI', item= "Cc1ccc(-c2cc(-c3ccco3)nc(N)n2)o1" )
> 100 µM

# get_value(readout='TGI', item= "Cc1ncc([N+](=O)[O-])n1CCN(C)CCCCn1ccnc1[N+](=O)[O-]" )
> 100 µM

# get_value(readout='TGI', item= COc1ccc(C(=O)C2CC3(CCC2(O)c2ccc(OC)cc2)CC(=O)Nc2ccccc2C3=O)cc1 (stereo unspecified) )
> 100 µM

# get_value(readout='TGI', item= "Nc1ccccc1C#C/C=C\C#Cc1ccc(F)cc1F" )
22.5 µM

# get_value(readout='TGI', item= "Brc1c[n+](Cc2ccc3ccccc3c2)cn1Cc1ccc2ccccc2c1" )
2.71 µM

# get_value(readout='TGI', item= "Cc1c2c(n3c(nc4ccccc43)c1C#N)N(c1ccc(Cl)cc1)CC2" )
> 100 µM

# get_value(readout='TGI', item= "O=C(O)CSc1n[nH]c(/C=C/c2ccccc2)n1" )
> 100 µM

# get_value(readout='TGI', item= Cc1c(Cl)ccc2c1NC(=O)C2(O)CC(=O)c1ccc(Cl)cc1Cl (stereo unspecified) )
> 50 µM

# get_value(readout='TGI', item= "NC1=CN(CCCO)C2=N/C(=C\c3ccco3)C(=O)N12" )
> 100 µM

# get_value(readout='TGI', item= "CS(=O)(=O)C1S(=O)(=O)OCCOS1(=O)=O" )
> 100 µM

# get_value(readout='TGI', item= "COc1cc(OC)c(-c2cc(=O)c3c(OC)c(OC)c(OC)c(OC)c3o2)cc1OC" )
> 100 µM

# get_value(readout='TGI', item= "C[N+]1(C)CC=C(N2CCOCC2)CC1" )
> 10 µM

# get_value(readout='TGI', item= COC1=CC(=O)N(C(=O)C(OC(=O)C2CCCN2C(=O)C2CCCN2C(=O)C(C(C)C)N(C)C(=O)C(NC(=O)C(C(C)C)N(C)C)C(C)C)C(C)C)C1Cc1ccccc1 (stereo unspecified) (ξNMe2Val-V[NMeV]PP-X16; configuration not given here) )
> 4 µM

# get_value(readout='TGI', item= "COc1ccc(C[C@@H]2CN(C(=O)c3ccccc3)[C@H](Cc3ccc(O)cc3)CN2C(=O)c2ccccc2)cc1Br" )
> 100 µM

# get_value(readout='TGI', item= O=c1cnn(C2OC(CO)C(O)C(F)C2O)c(=O)[nH]1 (stereo unspecified) )
> 100 µM

# get_value(readout='TGI', item= "O=S(=O)(O)c1ccc(NN(c2c(O)ccc3ccccc23)S(=O)(=O)O)cc1" )
> 100 µM

# get_value(readout='TGI', item= O=c1cc2n(c(=O)[nH]1)C1OC(C(O)C1O)[C@@H]2CCO (stereo partly specified) )
> 100 µM

# get_value(readout='TGI', item= "CN(C)c1c(Cl)c(=O)oc2c1ccc1nc(-c3ccccc3)sc12" )
> 100 µM

# get_value(readout='TGI', item= "O=C(NO)c1ccc(C(=O)NO)cc1" )
51.4 µM

# get_value(readout='TGI', item= "C=CCN1C(=O)CS/C1=N\NC(=O)c1c(C)nc2sccn12" )
> 100 µM

# get_value(readout='TGI', item= "O=C(NNc1nc2cc(F)ccc2n2c(CN3CCOCC3)ccc12)c1ccccc1" )
1.81 µM

# get_value(readout='TGI', item= "COc1cc2c(-c3nc4cc(Cl)c(F)cc4s3)cc(=O)oc2c(C)c1OC" )
1.14 µM

# get_value(readout='TGI', item= COc1ccc(C(CC(=O)c2ccccc2)C(C(=O)c2ccccc2)C(c2ccc(OC)cc2)C2C(=O)NC(=O)NC2=O)cc1 (stereo unspecified) )
> 100 µM

# get_value(readout='TGI', item= "O=C1Nc2ccc(F)c3c(OCCO)cc(-c4ccc[nH]4)c1c23" )
11.5 µM
